# Tested on: hMPV A2 TN/94-49
# test: HMPV antiviral assay Method 2 (LLC-MK2 cells with CP-100-356, ATP-Lite)
# Format: cell-based
# condition_notes: hMPV A2 TN/94-49, LLC-MK2 cells, 4 μM CP-100-356, Method 2
pEC50: −log10 of the molar value.
Assign pEC50 to each entry below.

Look up pEC50 for this compound: COc1cc(C(=O)NC[C@@](O)(c2ccnc(C#N)c2)c2cc3c(c(-c4cc(Cl)c(F)cc4F)n2)OC[C@]3(C)C(N)=O)cc2cn(C3CC3)nc12 [Example 501]
> 6.70

// next record C[C@]1(C(N)=O)COc2c1cc([C@@](O)(CNC(=O)c1ccc3nc(C4CC4)oc3c1)c1ccccc1)nc2-c1cc(F)c(F)cc1F [Example 194]
> 6.70

// next record C[C@]1(C(N)=O)COc2c1cc([C@@](O)(CNC(=O)c1cc(OC3CC3)c3nc(C4CC4)sc3c1)c1ccccc1)nc2-c1cc(Cl)c(F)cc1F [Example 190]
< 6.70

// next record COc1cc(C(=O)NC[C@@](O)(c2ccc(F)cc2)c2cc3c(c(-c4ccc5c(c4Cl)OC(F)(F)O5)n2)OC[C@]3(C)C(N)=O)cc2cn(C(F)F)nc12 [Example 264]
> 6.70

// next record C[C@]1(C(N)=O)COc2c1cc([C@@](O)(CNC(=O)c1cc(C(F)(F)F)c3nn(C4CC4)cc3c1)c1ccccc1)nc2-c1cc(Cl)c(F)cc1F [Example 228]
> 6.70

// next record C[C@]1(C(N)=O)COc2c1cc([C@@](O)(CNC(=O)c1cc(Cl)c3nn(C(F)F)cc3c1)c1ccccc1)nc2-c1cc(Cl)c(F)cc1F [Example 102]
< 6.70

###

# System: hMPV A2 TN/94-49
# test: HMPV antiviral assay Method 2 (LLC-MK2 cells with CP-100-356, ATP-Lite)
# Assay type: cell-based
# condition_notes: hMPV A2 TN/94-49, LLC-MK2 cells, 4 μM CP-100-356, Method 2
# Method: In vitro HMPV antiviral activity was evaluated using the clinical isolate A2 strain TN 94-49 (obtained from Dr. John Williams, Vanderbilt University, Tennessee) and LLC-MK2 cells (Millipore Sigma CB_85062804), an immortalized kidney epithelial cell line from Macaca mulatta. […] The test compounds were assessed in duplicate at a top concentration of 200 nM followed by 2.5-fold serial dilutions to give a total of 10 concentration points. […]
Assign EC50 to each entry below.

Look up EC50 for this compound: C[C@]1(C(N)=O)COc2c1cc([C@@](O)(CNC(=O)c1cc(OC3CC3)n3nc(C4CC4)cc3c1)C1CC1)nc2-c1cc(Cl)c(F)cc1F [Example 4]
< 200 nM

// next record COc1cc(C(=O)NC[C@@](O)(c2ccccc2)c2cc3c(c(-c4cc(C(F)(F)F)c(F)cc4F)n2)OC[C@]3(C)C(N)=O)cc2oc(C3CC3)nc12 [Example 305]
< 200 nM

// next record COc1cc(C(=O)NC[C@@](O)(c2ccccc2)c2cc3c(c(-c4ccc(F)c(Cl)c4Cl)n2)OC[C@]3(C)C(N)=O)cc2cc(C3CC3)nnc12 [Example 290]
< 200 nM

###

# Test system: hMPV A2 TN/94-49
# test: HMPV antiviral assay Method 2 (LLC-MK2 cells with CP-100-356, ATP-Lite)
# Type: cell-based
# condition_notes: hMPV A2 TN/94-49, LLC-MK2 cells, 4 μM CP-100-356, Method 2
pEC50: −log10 of the molar value.
readout_name: pEC50

Look up pEC50 for this compound: COc1cc(C(=O)NC[C@@](O)(c2ccccc2)c2cc3c(c(-c4cc(Cl)c(F)cc4F)n2)OC[C@]3(C)C(N)=O)cc2c1OCCC2 [Example 93]
< 6.70

// next record COc1cc(C(=O)NC[C@@](O)(c2ccccc2)c2cc3c(c(-c4cc(S(C)(=O)=O)ccc4F)n2)OC[C@]3(C)C(N)=O)cc2cn(C3(F)CC3)nc12 [Example 372]
< 6.70

// next record C[C@]1(C(N)=O)COc2c1cc([C@@](O)(CNC(=O)c1ccc3nc(C4CC4)oc3c1)c1cccc(F)c1)nc2-c1ccc(F)c(Cl)c1Cl [Example 312]
> 6.70

// next record COc1cc(C(=O)NC[C@@](O)(c2cccc(C(C)=O)c2)c2cc3c(c(-c4cccc(Cl)c4Cl)n2)OC[C@]3(C)C(N)=O)cc2cn(C3CC3)nc12 [Example 493]
> 6.70

// next record COc1cc(C(=O)NC[C@@](O)(c2cccc(F)n2)c2cc3c(c(-c4cc(Cl)c(F)cc4F)n2)OC[C@]3(C)C(N)=O)cn2cc(C3CC3)nc12 [Example 154]
> 6.70

// next record C[C@]1(C(N)=O)COc2c1cc([C@@](O)(CNC(=O)c1ccc3nc(C4CC4)oc3c1)c1cccc(F)c1)nc2-c1ccc2c(c1Cl)OC(F)(F)O2 [Example 287]
> 6.70
